Data origin, for the record: patent EP0259014A2

# Tested on: Pseudomonas aeruginosa GN 315
# test summary: MIC, serial dilution on Mueller Hinton agar
# Assay type: cell-based
# recorded conditions: GN315; Pseudomonas aeruginosa GN 315, resistance mechanism AAC(6'); Mueller Hinton agar, 37°C, 18 hours; read-out: MIC.
As shown below, each of these compounds has a reported MIC value.
Write it as a number; the unit µg/mL goes unstated.

compound	MIC [µg/mL]
NC[C@H]1O[C@H](O[C@H]2[C@H](F)[C@@H](O[C@H]3O[C@H](CO)[C@@H](O)[C@H](N)[C@H]3O)[C@H](N)C[C@@H]2N)[C@H](N)C[C@@H]1O [Compound No. 2, 5,3'-Dideoxy-5-fluorokanamycin B]	50
NC[C@H]1O[C@H](O[C@H]2[C@H](O)[C@@H](O[C@H]3O[C@H](CO)[C@@H](O)[C@H](N)[C@H]3O)[C@H](N)C[C@@H]2N)[C@H](N)C[C@@H]1O [TMB, 3'-deoxykanamycin B, reference compound]	50
NC[C@H](O)C(=O)N[C@@H]1C[C@H](N)[C@@H](O[C@H]2O[C@H](CN)[C@@H](O)[C@H](O)[C@H]2N)[C@H](F)[C@H]1O[C@H]1O[C@H](CO)[C@@H](O)[C@H](N)[C@H]1O [Compound No. 5]	6.25

Now for another entry.
Notebook: NCC[C@H](O)C(=O)N[C@@H]1C[C@H](N)[C@@H](O[C@H]2O[C@H](CN)[C@@H](O)C[C@H]2N)[C@H](F)[C@H]1O[C@H]1O[C@H](CO)[C@@H](O)[C@H](N)[C@H]1O [Compound No. 9] , MIC read as 6.25

* * *

# Test system: Mycobacterium 607
# test summary: MIC, serial dilution on Mueller Hinton agar
# Type: cell-based
# recorded conditions: Mycobacterium 607; Mueller Hinton agar, 37°C, incubated for 40 hours; read-out: MIC.
attribute measured: MIC (µg/mL)
Response body: numeric value in µg/mL, unit text excluded.

Previously resolved entries follow.
compound	target desc	MIC [µg/mL]
NC[C@@H]1C[C@H](O)[C@@H](N)[C@@H](O[C@H]2[C@H](F)[C@@H](O[C@H]3O[C@H](CO)[C@@H](O)[C@H](N)[C@H]3O)[C@H](N)C[C@@H]2N)O1	Mycobacterium 607	3.12
NC[C@H]1O[C@H](O[C@H]2[C@H](O)[C@@H](O[C@H]3O[C@H](CO)[C@@H](O)[C@H](N)[C@H]3O)[C@H](N)C[C@@H]2N)[C@H](N)[C@@H](O)[C@@H]1O	Mycobacterium 607	1.56
NCC(O)C(=O)N[C@@H]1C[C@H](N)[C@@H](O[C@H]2O[C@H](CN)[C@@H](O)C[C@H]2N)[C@H](F)[C@H]1O[C@H]1O[C@H](CO)[C@@H](O)[C@H](N)[C@H]1O (stereo partly drawn)	Mycobacterium 607	0.78

MIC reading for NC[C@@H]1CC[C@@H](N)[C@@H](O[C@H]2[C@H](O)[C@@H](O[C@H]3O[C@H](CO)[C@@H](O)[C@H](N)[C@H]3O)[C@H](N)C[C@@H]2N)O1 [DKB, 3',4'-dideoxykanamycin B, reference compound] : 1.56

MIC in this record for NC[C@H]1O[C@H](O[C@H]2[C@H](F)[C@@H](O[C@H]3O[C@H](CO)[C@@H](O)[C@H](N)[C@H]3O)[C@H](N)C[C@@H]2N)[C@H](N)[C@@H](O)[C@@H]1O : 1.56

Entry NC[C@@H]1CC[C@@H](N)[C@@H](O[C@H]2[C@H](F)[C@@H](O[C@H]3O[C@H](CO)[C@@H](O)[C@H](N)[C@H]3O)[C@H](NC(=O)[C@@H](O)CN)C[C@@H]2N)O1 ; MIC = 0.78

* * *

# System: Escherichia coli K-12 R5
The compounds listed here are annotated with their log10(MIC).
For clarity, the numbers are log10 values of MIC expressed in µg/mL.

compound	meas value
NC[C@H]1O[C@H](O[C@H]2[C@H](O)[C@@H](O[C@H]3O[C@H](CO)[C@@H](O)[C@H](N)[C@H]3O)[C@H](N)C[C@@H]2N)[C@H](N)C[C@@H]1O [TMB, 3'-deoxykanamycin B, reference compound]	2.00
NC[C@@H]1CC[C@@H](N)[C@@H](O[C@H]2[C@H](O)[C@@H](O[C@H]3O[C@H](CO)[C@@H](O)[C@H](N)[C@H]3O)[C@H](N)C[C@@H]2N)O1 [DKB, 3',4'-dideoxykanamycin B, reference compound]	1.70
NC[C@H](O)C(=O)N[C@@H]1C[C@H](N)[C@@H](O[C@H]2O[C@H](CN)[C@@H](O)C[C@H]2N)[C@H](F)[C@H]1O[C@H]1O[C@H](CO)[C@@H](O)[C@H](N)[C@H]1O	0.80
NC[C@@H]1C[C@H](O)[C@@H](N)[C@@H](O[C@H]2[C@H](F)[C@@H](O[C@H]3O[C@H](CO)[C@@H](O)[C@H](N)[C@H]3O)[C@H](N)C[C@@H]2N)O1	2.00

With Escherichia coli K-12 R5 as the test system, NCC[C@H](O)C(=O)N[C@@H]1C[C@H](N)[C@@H](O[C@H]2O[C@H](CN)CC[C@H]2N)[C@H](F)[C@H]1O[C@H]1O[C@H](CO)[C@@H](O)[C@H](N)[C@H]1O showed log10(MIC) of 1.70

* * *

# System: Staphylococcus aureus Ap01
# test summary: MIC, serial dilution on Mueller Hinton agar
# Format: cell-based
# recorded conditions: Staphylococcus aureus Ap01, resistance mechanism ANT(4'); Mueller Hinton agar, 37°C, 18 hours; read-out: MIC.
Catalogue of molecules with associated MIC
Numeric answer only, unit µg/mL assumed.

molecule	target desc	display unit	MIC
NC[C@@H]1C[C@H](O)[C@@H](N)[C@@H](O[C@H]2[C@H](F)[C@@H](O[C@H]3O[C@H](CO)[C@@H](O)[C@H](N)[C@H]3O)[C@H](N)C[C@@H]2N)O1 [Compound No. 3, 5,4'-Dideoxy-5-fluorokanamycin B]	Staphylococcus aureus Ap01	µg/mL	0.78
NC[C@H](O)C(=O)N[C@@H]1C[C@H](N)[C@@H](O[C@H]2O[C@H](CN)[C@@H](O)[C@H](O)[C@H]2N)[C@H](F)[C@H]1O[C@H]1O[C@H](CO)[C@@H](O)[C@H](N)[C@H]1O [Compound No. 5]	Staphylococcus aureus Ap01	µg/mL	6.25
NC[C@@H]1CC[C@@H](N)[C@@H](O[C@H]2[C@H](F)[C@@H](O[C@H]3O[C@H](CO)[C@@H](O)[C@H](N)[C@H]3O)[C@H](NC(=O)[C@@H](O)CN)C[C@@H]2N)O1 [Compound No. 12]	Staphylococcus aureus Ap01	µg/mL	0.78
NCC[C@H](O)C(=O)N[C@@H]1C[C@H](N)[C@@H](O[C@H]2O[C@H](CN)CC[C@H]2N)[C@H](F)[C@H]1O[C@H]1O[C@H](CO)[C@@H](O)[C@H](N)[C@H]1O [Compound No. 13]	Staphylococcus aureus Ap01	µg/mL	0.78

Sample NC[C@H](O)C(=O)N[C@@H]1C[C@H](N)[C@@H](O[C@H]2O[C@H](CN)[C@@H](O)C[C@H]2N)[C@H](F)[C@H]1O[C@H]1O[C@H](CO)[C@@H](O)[C@H](N)[C@H]1O [Compound No. 8] ; MIC observed: 0.78

The value of MIC measured for the molecule NC[C@H]1O[C@H](O[C@H]2[C@H](O)[C@@H](O[C@H]3O[C@H](CO)[C@@H](O)[C@H](N)[C@H]3O)[C@H](N)C[C@@H]2N)[C@H](N)C[C@@H]1O [TMB, 3'-deoxykanamycin B, reference compound] turned out to be 1.56

Record NCC[C@H](O)C(=O)N[C@@H]1C[C@H](N)[C@@H](O[C@H]2O[C@H](CN)[C@@H](O)C[C@H]2N)[C@H](F)[C@H]1O[C@H]1O[C@H](CO)[C@@H](O)[C@H](N)[C@H]1O [Compound No. 9] , field MIC: 0.78

* * *

# Test system: Pseudomonas aeruginosa GN 315
# test summary: MIC, serial dilution on Mueller Hinton agar
# Assay type: cell-based
# recorded conditions: GN315; Pseudomonas aeruginosa GN 315, resistance mechanism AAC(6'); Mueller Hinton agar, 37°C, 18 hours; read-out: MIC.
attribute measured: MIC (µg/mL)
Give your result in µg/mL as a bare value.

Some entries whose results are on file:
molecule	MIC / µg/mL
NC[C@@H]1CC[C@@H](N)[C@@H](O[C@H]2[C@H](F)[C@@H](O[C@H]3O[C@H](CO)[C@@H](O)[C@H](N)[C@H]3O)[C@H](N)C[C@@H]2N)O1	100
NCC[C@H](O)C(=O)N[C@@H]1C[C@H](N)[C@@H](O[C@H]2O[C@H](CN)[C@@H](O)[C@H](O)[C@H]2N)[C@H](F)[C@H]1O[C@H]1O[C@H](CO)[C@@H](O)[C@H](N)[C@H]1O	6.25
NCC[C@H](O)C(=O)N[C@@H]1C[C@H](N)[C@@H](O[C@H]2O[C@H](CN)[C@@H](O)[C@H](O)[C@H]2O)[C@H](O)[C@H]1O[C@H]1O[C@H](CO)[C@@H](O)[C@H](N)[C@H]1O [AMK, reference compound]	25

Then there is this molecule:
// MIC value for NCC[C@H](O)C(=O)N[C@@H]1C[C@H](N)[C@@H](O[C@H]2O[C@H](CN)C[C@H](O)[C@H]2N)[C@H](F)[C@H]1O[C@H]1O[C@H](CO)[C@@H](O)[C@H](N)[C@H]1O : 6.25
